# Species on record: Rattus norvegicus
# testName: Open TG-GATES - Regimen: Daily Repeat
# Type: toxicity, organism-based, Sprague-Dawley
# Design: regimen Daily Repeat, gender Male, age 6 weeks
# conditions: in vivo, po, 0 mg/kg, 72 h, tissue Plasma, route gavage, dose level Control, time 3 day
assayReadout: TC (mg/dL)
Give bare numbers, in mg/dL.

[
  {
    "compound": "CN(C)CCCN1c2ccccc2CCc2ccccc21",
    "reportedValue": 79.2
  },
  {
    "compound": "NC(N)=Nc1nc(CSCCC(N)=NS(N)(=O)=O)cs1",
    "reportedValue": 76.6
  },
  {
    "compound": "CN(C)CCN(Cc1cccs1)c1ccccn1",
    "reportedValue": 75.4
  },
  {
    "compound": "CC(C)OC(=O)C(C)(C)Oc1ccc(C(=O)c2ccc(Cl)cc2)cc1 [FENOFIBRATE]",
    "reportedValue": 76.8
  },
  {
    "compound": "CN1C(=O)CN=C(c2ccccc2)c2cc(Cl)ccc21",
    "reportedValue": 78.4
  },
  {
    "compound": "CCOC(=O)CCC(=O)O[C@H]1[C@H](O[C@@H]2[C@@H](C)[C@H](O[C@H]3C[C@@](C)(OC)[C@@H](O)[C@H](C)O3)[C@@H](C)C(=O)O[C@H](CC)[C@@](C)(O)[C@H](O)[C@@H](C)C(=O)[C@H](C)C[C@@]2(C)O)O[C@H](C)C[C@@H]1N(C)C [ERYTHROMYCIN ETHYLSUCCINATE]",
    "reportedValue": 71.4
  },
  {
    "compound": "COc1ccc2[nH]c([S+]([O-])Cc3ncc(C)c(OC)c3C)nc2c1 (stereo not drawn)",
    "reportedValue": 72.2
  }
]

Ask | Write down TC measured for item O=C(CCCN1CCC(O)(c2ccc(Cl)cc2)CC1)c1ccc(F)cc1
Reply | 88

Where do the numbers come from? From ChEMBL document CHEMBL3885861.
